- METHOD: Inhibition of mouse GAT3 expressed in HEK293 cells assessed as reduction in [3H]GABA uptake preincubated for 25 mins followed by [3H]GABA addition and measured after 4 mins by liquid scintillation counting method
Mark each entry label 1 if its IC50 sits below 20 µM, and label 0 for all others.

These recorded examples may help you get a feel for the data.
O=C(O)C1CCCN(C/C=C/C(c2ccc3sccc3c2)(c2ccc3sccc3c2)c2ccc3sccc3c2)C1 (centres undefined)
label 0
COc1ccc(C(C/C=C/CN2CCCC(C(=O)O)C2)(c2ccc(OC)cc2)c2ccc(OC)cc2)cc1 (centres undefined)
label 0
O=C(O)C1CCCN(C/C=C/C(c2ccc3c(c2)OCO3)(c2ccc3c(c2)OCO3)c2ccc3c(c2)OCO3)C1 (centres undefined)
label 0
Cc1ccc(C(/C=C/CN2CCCC(C(=O)O)C2)(c2ccc(C)cc2)c2ccc(C)cc2)cc1 (centres undefined)
label 1
COc1ccc(C(/C=C/CN2CCCC(C(=O)O)C2)c2ccc(OC)cc2)cc1 (centres undefined)
label 0

query: Threshold test, IC50 < 20 µM: COc1ccc(C(/C=C/CN2CCCC(C(=O)O)C2)(c2ccc(OC)cc2)c2ccc3c(c2)OCO3)cc1 (centres undefined)
result: label 1

query: For COc1ccc(C(/C=C/CN2CCCC(C(=O)O)C2)(c2ccc(OC)cc2)c2ccsc2)cc1 (centres undefined) , is the recorded IC50 below the cut-off of 20 µM?
result: label 0

query: hey, is IC50 for O=C(O)C1CCCN(C/C=C/C(c2ccc3occc3c2)(c2ccc3occc3c2)c2ccc3occc3c2)C1 (centres undefined) lower than 20 µM or not?
result: label 1

* * *

- METHOD: Inhibition of mouse GAT2 expressed in HEK293 cells assessed as reduction in [3H]GABA uptake preincubated for 25 mins followed by [3H]GABA addition and measured after 4 mins by liquid scintillation counting method
IC50 values by entry
Give the value in µM but do not write µM after it.

Known results for compounds:
O=C(O)C1CCCN(C/C=C/C(c2ccc3occc3c2)(c2ccc3occc3c2)c2ccc3occc3c2)C1 (stereo unspecified)
9.55
COc1ccc(C(/C=C/CN2CCC[C@H](C(=O)O)C2)(c2ccc(OC)cc2)c2ccc3sccc3c2)cc1
23.4
O=C(O)C1CCCN(C/C=C/C(c2ccc3c(c2)OCO3)(c2ccc3c(c2)OCO3)c2ccc3c(c2)OCO3)C1 (stereo unspecified)
89.1

query: I'd like to know its IC50. The compound in question is Cc1ccc(C(/C=C/CN2CCCC(C(=O)O)C2)(c2ccc(C)cc2)c2ccc(C)cc2)cc1 (stereo unspecified)
result: 14.1

query: Recorded IC50 of COc1ccc(C(/C=C/CN2CCCC(C(=O)O)C2)(c2ccc(OC)cc2)c2ccc3sccc3c2)cc1 (stereo unspecified) , please.
result: 25.1

query: Returns the measured IC50 for the input compound. Input: O=C(O)C1CCCN(C/C=C/C(c2ccc3sccc3c2)(c2ccc3sccc3c2)c2ccc3sccc3c2)C1 (stereo unspecified)
result: 33.9
